# Test system: WPMY1-ACTB-RAB5A
# Test Description: phenotypically active (imaging signature differs from DMSO and reproducible) at any of 0.3-9 uM (binary (1 = active, 0 = inactive)); higher = active
# Run Conditions: treatment time: 24 h
Measure Name: phenotypically active
Reply: number alone, nothing else.

Example entries and their recorded answers appear below.
• CCCC(=O)O [Sodium butyrate] = 0
• CNc1nc(-c2ccc3c(N)n[nH]c3c2)cc(N2C[C@@H](C(=O)NC3CCCCC3)CC[C@H]2C)n1 = 1
• COc1ccc(CCN(C)CCCC(C#N)(c2ccc(OC)c(OC)c2)C(C)C)cc1OC (stereo not given) = 0
• CC(C)C1=CC2=CCC3[C@](C)(CCC[C@]3(C)C(=O)O)C2CC1 (stereo not given in full) = 0

Query: phenotypically active; subject: CC1=C(/C=C/C(C)=C\C=C\C(C)=C\C(=O)O)C(C)(C)CCC1 1

----------
# maps each entry to its phenotypically active
# Test system: A549-TUBA1B-RELA
# Test Description: phenotypically active (imaging signature differs from DMSO and reproducible) at any of 0.3-9 uM (binary (1 = active, 0 = inactive)); higher = active
# Run Conditions: treatment time: 24 h
Reply: number alone, nothing else.

Example entries and their recorded answers appear below.
- Nc1ccc(O)c(C(=O)O)c1 [mesalazine]: 0
- CC[C@]12CCCN3CCc4c(n(c5ccccc45)C(=O)C1)[C@@H]32 [Eburnamonine (-)]: 1
- COc1cc2c(NC3CCN(C(C)C)CC3)nc(N3CCC(F)(F)CC3)nc2cc1OCCCN1CCCC1: 1
- CC[C@H](CO)Nc1nc(NCc2ccc(-c3ccccn3)cc2)c2ncn(C(C)C)c2n1: 1
- O=C1NC(=O)/C(=C\c2cccc(C(F)(F)F)c2)S1: 0

Query: phenotypically active; subject: c1ccc(-c2cnn3cc(-c4ccc(OCCN5CCOCC5)cc4)cnc23)cc1 0

Query: phenotypically active; subject: C#Cc1cccc(Nc2ncnc3cc(OCCOC)c(OCCOC)cc23)c1 [erlotinib] 1

Query: phenotypically active; subject: O=[N+]([O-])c1c(Nc2cc(F)cc(Cl)c2)ccc2nonc12 0

Query: phenotypically active; subject: CC[C@H](CO)Nc1nc(NCc2ccccc2)c2ncn(C(C)C)c2n1 [Roscovitine] 1

Query: phenotypically active; subject: COc1ccc(-c2noc(CSc3nnc(C)n3-c3ccc(OC)cc3)n2)cc1 0

----------
# System: HepG2-CANX-COX4
# Test Description: phenotypically active (imaging signature differs from DMSO and reproducible) at any of 0.3-9 uM (binary (1 = active, 0 = inactive)); higher = active
# Run Conditions: treatment time: 24 h
The reply should name one outcome from active, inactive

* COP(=O)(OC)OC(c1ccc(Cl)cc1)P(=O)(OC)OC (stereo unspecified) | inactive

What did the test return for CC(C)(C(=O)c1cccnc1)c1cccnc1 ? inactive

What did the test return for CC(C)(C#N)c1cc(Cn2cncn2)cc(C(C)(C)C#N)c1 ? inactive

----------
# Tested on: A549-ACTB-RAB5A
# Test Description: lowest phenotypically active concentration; higher = less potent
# Run Conditions: treatment time: 24 h
Measure Name: lowest phenotypically active concentration

Example entries and their recorded answers appear below.
- CCCCCCCCCCCCC/C=C/[C@@H](O)[C@H](CO)N(C)C: 3 µM
- CC(C)n1c(/C=C/[C@@H](O)C[C@@H](O)CC(=O)O)c(-c2ccc(F)cc2)c2ccccc21: 1 µM
- CC/C(=C(\CC)c1ccc(O)c(CN(CC)CC)c1)c1ccc(O)c(CN(CC)CC)c1: ≤ 0.3 µM

Query: lowest phenotypically active concentration; subject: Cc1ccc([N+](=O)[O-])cc1S(=O)(=O)N(C)/N=C/c1cnc2ccc(Br)cn12 ≤ 0.3 µM

Query: lowest phenotypically active concentration; subject: O=C(Nc1ccc(CN2CCOCC2)cc1)c1ccc(-c2cccc(Cl)c2)o1 9 µM

Query: lowest phenotypically active concentration; subject: COc1cc([C@@H]2c3cc4c(cc3[C@@H](O[C@@H]3O[C@@H]5CO[C@@H](c6cccs6)O[C@H]5[C@H](O)[C@H]3O)[C@H]3COC(=O)[C@H]23)OCO4)cc(OC)c1O [teniposide] ≤ 0.3 µM

Query: lowest phenotypically active concentration; subject: CCCC(=O)O[C@]1(C(=O)COC(C)=O)CC[C@H]2[C@@H]3C[C@H](F)C4=CC(=O)C=C[C@]4(C)[C@@]3(F)[C@@H](O)C[C@@]21C [difluprednate] ≤ 0.3 µM
